Values were extracted from the supplement of paper PMC7877785.

experiment: self-splicing fitness, log relative to wild type (ln ratio); higher = more splicing; Tetrahymena group I intron in knt gene, E. coli kanamycin selection, DiMSum; sequences stand for … in CUCUCU…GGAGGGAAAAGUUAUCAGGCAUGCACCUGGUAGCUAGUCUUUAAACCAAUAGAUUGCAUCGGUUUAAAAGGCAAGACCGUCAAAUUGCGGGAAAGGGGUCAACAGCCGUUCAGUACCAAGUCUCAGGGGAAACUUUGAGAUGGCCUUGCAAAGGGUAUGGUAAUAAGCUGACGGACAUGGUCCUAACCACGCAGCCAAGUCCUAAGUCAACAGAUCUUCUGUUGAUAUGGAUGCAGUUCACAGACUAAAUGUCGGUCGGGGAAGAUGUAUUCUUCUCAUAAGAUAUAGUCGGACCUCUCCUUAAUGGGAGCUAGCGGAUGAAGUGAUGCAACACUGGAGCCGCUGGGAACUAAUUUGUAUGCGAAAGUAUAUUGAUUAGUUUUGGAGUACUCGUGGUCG;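 note: selection with 25 µg/mL kanamycin versus none on LB agar overnight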
reported conditions: 37 °C
I'd appreciate it if you could supply self-splicing fitness (ln) values for the items below.
Give bare numbers.

Would you please look over these solved cases?
[[record]]
sequence_record = "ACCCAGCAAUAUUACGUCGU"
reported_result = -0.318

[[record]]
sequence_record = "CUCUAGCAAUAUUACGAAAU"
reported_result = -3.18

[[record]]
sequence_record = "GUGCAGCAAUAUUACGUCAG"
reported_result = -1.83

[[record]]
sequence_record = "GCAUAGCAAUAUUACGUGAA"
reported_result = -0.528

[[record]]
sequence_record = "CGGAAGCAAUAUUACGGACA"
reported_result = -0.329

[[record]]
sequence_record = "CUACAGCAAUAUUACGCUUC"
reported_result = -2.88

[[record]]
sequence_record = "CCGAAGCAAUAUUACGAAUA"
reported_result = -2.49

[[record]]
sequence_record = "AUAGAGCAAUAUUACGACUC"
reported_result = -0.0412


Provide self-splicing fitness (ln) for all items below, preserving their order.
1. GACAAGCAAUAUUACGAUAU
2. GUCAAGCAAUAUUACGUGGU
3. GAGAAGCAAUAUUACGGCGU
4. UCUAAGCAAUAUUACGAAUC
5. CUUGAGCAAUAUUACGGUGU

[-1.4, -3.09, 0.0558, -2.3, -3.01]

Provide self-splicing fitness (ln) for all items below, preserving their order.
1. AGCCAGCAAUAUUACGGCUC
2. CAACAGCAAUAUUACGUCUG

[-3.14, -1.38]

Return value of self-splicing fitness (ln) for input `ACCGAGCAAUAUUACGAUGC` , no commentary.
-1.56

###

experiment: self-splicing fitness, log relative to wild type (ln ratio); higher = more splicing; Tetrahymena group I intron in knt gene, E. coli kanamycin selection, DiMSum; sequences stand for … in CUCUCU…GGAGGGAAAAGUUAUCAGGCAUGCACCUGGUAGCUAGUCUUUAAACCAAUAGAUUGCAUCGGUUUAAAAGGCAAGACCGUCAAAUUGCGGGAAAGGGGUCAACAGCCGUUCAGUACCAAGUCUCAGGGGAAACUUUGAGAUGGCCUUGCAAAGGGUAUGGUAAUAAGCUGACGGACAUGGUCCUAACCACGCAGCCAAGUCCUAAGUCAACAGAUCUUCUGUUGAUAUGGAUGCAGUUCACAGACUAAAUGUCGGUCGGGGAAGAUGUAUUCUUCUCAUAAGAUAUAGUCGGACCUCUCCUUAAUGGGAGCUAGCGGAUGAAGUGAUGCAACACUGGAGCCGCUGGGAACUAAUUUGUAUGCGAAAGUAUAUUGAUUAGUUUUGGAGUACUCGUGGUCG
reported conditions: 30 °C
measured endpoint: self-splicing fitness (ln)

[[record]]
sequence_record = "UUCAAGCAAUAUUACGCGGU"
reported_result = -2.91

[[record]]
sequence_record = "CACGAGCAAUAUUACGACUU"
reported_result = -4.4

[[record]]
sequence_record = "AUUCAGCAAUAUUACGUUCA"
reported_result = -1.07


Provide self-splicing fitness (ln) for all items below, preserving their order.
1. UCGUAGCAAUAUUACGGUGA
2. CUGAAGCAAUAUUACGGCAA
3. UACUAGCAAUAUUACGAGUG

[-1.57, -3.04, -1.07]

Provide self-splicing fitness (ln) for all items below, preserving their order.
1. AGAAAGCAAUAUUACGAUGC
2. AUACAGCAAUAUUACGAAUA

1. -2.16
2. -2.51

Provide self-splicing fitness (ln) for all items below, preserving their order.
1. GCGCAGCAAUAUUACGUGAU
2. ACGUAGCAAUAUUACGUUCC

1. -0.659
2. -3.29

Provide self-splicing fitness (ln) for all items below, preserving their order.
1. UUCAAGCAAUAUUACGCCCU
2. AACUAGCAAUAUUACGGCGC
3. UCCUAGCAAUAUUACGUUGC
4. UGGUAGCAAUAUUACGCGGG
5. UACGAGCAAUAUUACGGUAA
6. AACGAGCAAUAUUACGUUGA
7. AGUUAGCAAUAUUACGAUGA

1. -1.34
2. -0.8
3. -3.64
4. -2.93
5. -1.82
6. -3.48
7. -1.32

Provide self-splicing fitness (ln) for all items below, preserving their order.
1. UUUGAGCAAUAUUACGGUUG
2. CUGAAGCAAUAUUACGGACU
3. UCCAAGCAAUAUUACGUCCA
4. GUCAAGCAAUAUUACGAUAG
5. CCGAAGCAAUAUUACGGCGA
6. GUUUAGCAAUAUUACGUCGA

1. -1.79
2. -2.85
3. -1.56
4. -4.6
5. -2.69
6. -1.43

Provide self-splicing fitness (ln) for all items below, preserving their order.
1. ACAGAGCAAUAUUACGGAUG
2. CGGAAGCAAUAUUACGAGUC
3. AUUGAGCAAUAUUACGCAGG
4. AGGAAGCAAUAUUACGUUCU
5. UACGAGCAAUAUUACGAGCG
6. GAAUAGCAAUAUUACGCAUG

-4.02
-2.83
-3.68
-3.47
-1.12
-0.0618

Provide self-splicing fitness (ln) for all items below, preserving their order.
1. AUGUAGCAAUAUUACGGCUA
2. ACAGAGCAAUAUUACGACGG

[-2.45, -2.78]

Provide self-splicing fitness (ln) for all items below, preserving their order.
1. GUGCAGCAAUAUUACGAUGU
2. UCCGAGCAAUAUUACGGCCA
3. GAUAAGCAAUAUUACGCACC

1. -0.56
2. -0.297
3. -1.96

###

I'd appreciate it if you could supply self-splicing fitness (ln) values for the items below.
experiment: self-splicing fitness, log relative to wild type (ln ratio); higher = more splicing; Tetrahymena group I intron in knt gene, E. coli kanamycin selection, DiMSum; sequences stand for … in CUCUCU…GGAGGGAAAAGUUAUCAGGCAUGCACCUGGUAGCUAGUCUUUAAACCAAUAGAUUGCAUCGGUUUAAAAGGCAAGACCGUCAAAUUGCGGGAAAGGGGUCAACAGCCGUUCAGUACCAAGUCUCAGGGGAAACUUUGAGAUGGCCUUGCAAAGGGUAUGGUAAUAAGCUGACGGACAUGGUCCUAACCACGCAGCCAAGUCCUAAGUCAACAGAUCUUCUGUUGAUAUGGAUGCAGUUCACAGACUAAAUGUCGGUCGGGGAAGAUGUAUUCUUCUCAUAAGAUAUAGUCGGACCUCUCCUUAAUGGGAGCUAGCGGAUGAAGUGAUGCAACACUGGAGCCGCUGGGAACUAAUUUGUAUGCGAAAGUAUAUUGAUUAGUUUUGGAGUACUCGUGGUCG
reported conditions: 30 °C
Give bare numbers.

Would you please look over these solved cases?
[[record]]
sequence_record = "GCCCAGCAAUAUUACGUCGA"
reported_result = -1.5

[[record]]
sequence_record = "CGUCAGCAAUAUUACGAGAA"
reported_result = -2.97

[[record]]
sequence_record = "AAGGAGCAAUAUUACGAGAG"
reported_result = -1.62

[[record]]
sequence_record = "UUUCAGCAAUAUUACGGUGA"
reported_result = -0.66


Provide self-splicing fitness (ln) for all items below, preserving their order.
1. CGAUAGCAAUAUUACGGCGC
2. AGUGAGCAAUAUUACGGUAU
3. CAUGAGCAAUAUUACGGCGC
4. AAUCAGCAAUAUUACGUCGG
5. UUCUAGCAAUAUUACGCGAU

[-1.21, -3.9, -3.56, -1.88, -1.99]

Provide self-splicing fitness (ln) for all items below, preserving their order.
1. UUUAAGCAAUAUUACGAAUG
2. UGAGAGCAAUAUUACGUAUU
3. GUUGAGCAAUAUUACGUACC
4. GAGGAGCAAUAUUACGCAAU

-1.54
-3.22
-1.75
-2.36

Provide self-splicing fitness (ln) for all items below, preserving their order.
1. AACGAGCAAUAUUACGACCU
2. UCGGAGCAAUAUUACGCUGC
3. GCCUAGCAAUAUUACGUCGA
4. CCGAAGCAAUAUUACGCGAU

1: -1.02; 2: -3.04; 3: -1.67; 4: -3.78
